Hello, the source for this data is PubChem BioAssay AID1159580, in case you need it.

experiment: chemical genetic growth profiling, strain panel (AID 1159580);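 note: tested at 20 µM; growth read once vehicle control cultures reached saturation at 30 °C; 1 = growth at the plate median or of vehicle wells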
experimentalContext: S. cerevisiae deletion strains, growth OD, locus YLR403W, strain SFP1, active compounds read low
Screen size: about 5,500 compounds; about 2,000 (36%) were called active. Roughly 18% stayed inconclusive and do not appear here. The list shows a part of the results.
Field: label. Allowed values: T (normalized growth < 0.9) or F (normalized growth >= 0.9).

In: Answer whether the compound Cc1c(S(=O)(=O)Nc2cccc([N+](=O)[O-])c2)sc2ccc(Cl)cc12 has normalized growth strictly less than 0.9
Out: F

In: Answer whether the compound Brc1ccc(-c2csc(-c3cccnc3)n2)cc1 has normalized growth strictly less than 0.9
Out: T

In: Answer whether the compound COc1ccc(-c2cn3cc(C)ccc3n2)cc1 has normalized growth strictly less than 0.9
Out: F

In: Answer whether the compound CC1=CC(=O)N(c2ccc(F)c(Cl)c2)C1=O has normalized growth strictly less than 0.9
Out: T

In: Answer whether the compound CNC(=O)Sc1c(-c2ccc(Cl)cc2)nn(C(=O)NC)c1SC has normalized growth strictly less than 0.9
Out: T

In: Answer whether the compound Cc1ccc(-c2nc(NS(=O)(=O)c3cccc4nonc34)sc2C)cc1Cl has normalized growth strictly less than 0.9
Out: F

In: Answer whether the compound Nc1ccccc1C(=O)Nc1cc(C(F)(F)F)cc(C(F)(F)F)c1 has normalized growth strictly less than 0.9
Out: F

In: Answer whether the compound O=S(=O)(NCc1ccc(C(F)(F)F)cc1)c1cc(Br)c(Br)s1 has normalized growth strictly less than 0.9
Out: T

In: Answer whether the compound CCOC(=O)c1sc(S(C)=NC(=O)Nc2ccc(Cl)cc2)c2c1CCC=C2 (stereo not drawn) has normalized growth strictly less than 0.9
Out: F

In: Answer whether the compound CC1=CC(=O)N(c2ccc(OC(F)(F)F)cc2)C1=O has normalized growth strictly less than 0.9
Out: T

In: Answer whether the compound FC(F)(F)c1cc(NC(=S)SCCSC(=S)Nc2cc(C(F)(F)F)cc(C(F)(F)F)c2)cc(C(F)(F)F)c1 has normalized growth strictly less than 0.9
Out: F

In: Answer whether the compound Clc1ccccc1-c1csc(-c2ccncc2)n1 has normalized growth strictly less than 0.9
Out: F

In: Answer whether the compound CC(C)(C)C1=C(C#N)C(c2c(Cl)cccc2Cl)C(C#N)=C(N)O1 (stereo not drawn) has normalized growth strictly less than 0.9
Out: F

In: Answer whether the compound N#Cc1ccc(Oc2sccc2[N+](=O)[O-])cc1 has normalized growth strictly less than 0.9
Out: T

In: Answer whether the compound Cc1ccc(S(=O)(=O)Nc2nc(-c3ccc(C)c(Cl)c3)c(C)s2)cc1 has normalized growth strictly less than 0.9
Out: F

In: Answer whether the compound Clc1ccc(CSc2nccn2-c2cc(Cl)ccc2Cl)cc1 has normalized growth strictly less than 0.9
Out: T

In: Answer whether the compound Clc1cc(Cl)cc(C=NCc2ccccc2)c1 has normalized growth strictly less than 0.9
Out: T

In: Answer whether the compound CC1C(c2ccccc2)N(C)C(c2ccccc2)CC1(O)c1ccc(F)cc1 (stereo not drawn) has normalized growth strictly less than 0.9
Out: F

In: Answer whether the compound CN(C)c1ccc(/C=C/c2ccc3ccccc3[n+]2C)cc1 has normalized growth strictly less than 0.9
Out: T

* * *

experiment: chemical genetic growth profiling, strain panel (AID 1159580);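 note: tested at 20 µM; growth read once vehicle control cultures reached saturation at 30 °C; 1 = growth at the plate median or of vehicle wells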
experimentalContext: S. cerevisiae deletion strains, growth OD, locus YHR013C, strain ard1
Screen size: about 5,500 compounds; about 2,000 (36%) were called active. Not shown: some 18% with an inconclusive outcome. No stated cut-off is given here; in the data, active means normalized growth mostly below about 0.91 (no sharp cut-off); inconclusive means no clear call, values can overlap the other calls; inactive means mostly above about 0.92. Some of the results follow.
Pick one and only one: 1 (yes) (active), 0 (no) (inactive)

In: Field: outcome | Entry: COP(=S)(OC)Oc1ccc(Sc2ccc(OP(=S)(OC)OC)cc2)cc1
Out: 0 (no)

In: Field: outcome | Entry: NC(N)=NCCN1CCCCCCC1
Out: 0 (no)

In: Field: outcome | Entry: O=c1oc2ccccc2cc1O
Out: 0 (no)

In: Field: outcome | Entry: Clc1ccccc1CN1CCc2sccc2C1
Out: 0 (no)

In: Field: outcome | Entry: Fc1ccc([C@@H]2CCNC[C@H]2COc2ccc3c(c2)OCO3)cc1
Out: 0 (no)

In: Field: outcome | Entry: CC1CCC(NC(=O)N(CCCl)N=O)CC1 (stereo unspecified)
Out: 1 (yes)

In: Field: outcome | Entry: CC(C)(S)[C@@H](N)C(=O)O
Out: 0 (no)

In: Field: outcome | Entry: COc1ccc2c(c1)OCC(Cc1ccc(OC)c(OC(C)=O)c1)C2=O (stereo unspecified)
Out: 0 (no)

In: Field: outcome | Entry: O=NN(CCCl)C(=O)NCCCl
Out: 1 (yes)

In: Field: outcome | Entry: CN(C/C=C/C#CC(C)(C)C)Cc1cccc2ccccc12
Out: 1 (yes)

In: Field: outcome | Entry: O=C(O)C(O)C(O)C(=O)O (stereo unspecified)
Out: 0 (no)

In: Field: outcome | Entry: COc1ccc2nc(S(=O)Cc3ncc(C)c(OC)c3C)[nH]c2c1 (stereo unspecified)
Out: 1 (yes)

In: Field: outcome | Entry: CN(C)CCC(c1ccccc1)c1ccccn1 (stereo unspecified)
Out: 0 (no)

In: Field: outcome | Entry: NC(C(=O)O)C(O)C(=O)O (stereo unspecified)
Out: 0 (no)

In: Field: outcome | Entry: O=C(O)CCC1NCC2CC1CN1CCCCC21 (stereo unspecified)
Out: 0 (no)

In: Field: outcome | Entry: COc1cc2c(cc1OC)C1(O)C(=O)c3ccc(O)c(C(=O)O)c3OC1CO2 (stereo unspecified)
Out: 0 (no)

In: Field: outcome | Entry: CN[C@@H]1C(OC2[C@H](O[C@H]3[C@H](O)[C@@H](O)[C@H](N=C(N)N)[C@@H](O)[C@@H]3N=C(N)N)OC(C)[C@]2(O)CO)OC(CO)C(O)C1O (stereo partly specified)
Out: 0 (no)

In: Field: outcome | Entry: O=C(O)[C@@H](S)[C@@H](S)C(=O)O
Out: 1 (yes)

In: Field: outcome | Entry: C=C[C@@]1(C)CC(=O)[C@@]2(O)[C@](C)(O1)[C@@H](OC(C)=O)[C@@H](O)C1C(C)(C)CC[C@H](O)[C@@]12C (stereo partly specified)
Out: 0 (no)

In: Field: outcome | Entry: CC(=O)Oc1c2c(c(CC=C(C)C)c3c1C(=O)C1=C[C@@H]4CC5C(C)(C)OC(C/C=C(\C)C(=O)O)(C4=O)[C@@]15O3)OC(C)(CCC=C(C)C)C=C2 (stereo partly specified)
Out: 0 (no)

In: Field: outcome | Entry: CC[C@@H]1OC(=O)C[C@@H](O)[C@H](C)[C@@H](O[C@@H]2O[C@H](C)[C@@H](O)[C@H](N(C)C)[C@H]2O)[C@@H](CCN2C[C@H](C)C[C@H](C)C2)C[C@@H](C)C(=O)/C=C/C(C)=C\[C@@H]1CO[C@@H]1O[C@H](C)[C@@H](O)[C@@H](OC)[C@H]1OC
Out: 0 (no)

In: Field: outcome | Entry: COC(=O)[C@H](c1ccccc1Cl)N1CCc2sccc2C1
Out: 0 (no)

In: Field: outcome | Entry: CC(=O)O[C@@H]1CC2C(C)(C)[C@H](O)C=C[C@]2(C)C2CC[C@@]3(C)[C@H](c4ccoc4)OC(=O)C4OC43[C@@]21C (stereo partly specified)
Out: 0 (no)

In: Field: outcome | Entry: CC(=O)Oc1c2c(c3c(c1CC=C(C)C)O[C@]14C(=C[C@@H]5CC1C(C)(C)OC4(C/C=C(\C)C(=O)O)C5=O)C3=O)OC(C)(CCC=C(C)C)C=C2 (stereo partly specified)
Out: 0 (no)

In: Field: outcome | Entry: NC(N)=NCCCCN=C(N)N
Out: 0 (no)

In: Field: outcome | Entry: COc1c(C)c2c(c(O)c1C/C=C(\C)CCC(=O)O)C(=O)OC2
Out: 1 (yes)

In: Field: outcome | Entry: O=C1CCCN1CC#CCN1CCCC1
Out: 0 (no)

In: Field: outcome | Entry: O=c1[nH]c(=O)n(C2C[C@H](O)[C@@H](CO)O2)cc1C(F)(F)F (stereo partly specified)
Out: 0 (no)

In: Field: outcome | Entry: c1ccc2c(CC3=NCCN3)cccc2c1
Out: 0 (no)

In: Field: outcome | Entry: CC(C)c1nc(N(C)S(C)(=O)=O)nc(-c2ccc(F)cc2)c1/C=C/[C@@H](O)C[C@@H](O)CC(=O)O
Out: 0 (no)

In: Field: outcome | Entry: NCC[C@@H](O)C(=O)N[C@@H]1C[C@H](N)[C@@H](O[C@H]2O[C@H](CN)[C@@H](O)[C@H](O)[C@H]2O)[C@H](O)[C@H]1O[C@H]1O[C@H](CO)[C@@H](O)[C@H](N)C1O (stereo partly specified)
Out: 0 (no)
